The origin of these recorded values is PubChem BioAssay AID720706.

- assayRemarks: GFP drop in mixed WT/humanized-ribosome E. coli culture – GFP/RFP fluorescence, OD600, single point, bacterial rRNA inhibitor project, primary screen (AID 720706)
- experimentalConditions: E. coli WT GFP vs humanized-ribosome RFP mutants, 24 h; stronger effect = lower value, DMSO median 0, no signal -100
The campaign covered roughly 350,000 compounds. About 5,500 (1.6%) were called active. What follows is part of a selection rich in actives, with near analogues and random picks from the rest.
Please respond with reported GFP signal change (wild-type ribosome) for every item in the list.
One number for each entry, in %.

Cc1ccc(C(=O)OCC(=O)NCc2cc(C)c(O)c(C)c2)cc1S(=O)(=O)N1CCCCC1 :: -24.5
CCOc1ccc2nc(N(CCN(C)C)C(=O)c3ccc4ccccc4c3)sc2c1 :: -29.3
C/C=C/c1ccc2c(c1)O[C@H](CN(C)C(=O)Cc1ccncc1)[C@@H](C)CN([C@@H](C)CO)S2(=O)=O :: -0.815
CC(CN1CCOCC1)OC(=O)c1ccc(C(C)(C)C)cc1 (stereo unspecified) :: -5.42
COc1ccc(C2=CN(Cc3ccccc3)C(c3ccc(OC)cc3)CC2=O)cc1 (stereo unspecified) :: -23.8
COc1ccc(NC(=O)N(C)C[C@H]2OCCCC[C@H](C)Oc3ccc(NC(=O)NC4CCCCC4)cc3C(=O)N([C@@H](C)CO)C[C@@H]2C)cc1 :: 1.21

Required: GFP signal change (wild-type ribosome), one value per molecule below.
1. O=C(NCc1ccc2c(c1)OCO2)c1c(O)nc2sccn2c1=O
2. CCCNC(=O)c1cc2c(c(-c3cccc(-c4ccc(C#N)cc4)c3)n1)[C@@H](CCO)N(C(=O)CC)C2
3. Cc1ccc(C(=O)OCC(=O)N2CC(C)CC(C)C2)cc1S(=O)(=O)N1CCCCC1 (stereo unspecified)
4. O=C(NNS(=O)(=O)c1ccccc1)c1cnn(-c2ccc(Cl)cc2)c1C(F)(F)F
5. NNC(=O)c1cnn(-c2ccccc2)c1C(F)(F)F
6. CCCc1c(C(=O)O)cnn1-c1ccc(Cl)cc1
7. CN1CCN(c2ccc(NC(=O)c3ccc4c(c3)OCCO4)cc2Cl)CC1
8. COc1ccc(C(=O)CC(=O)c2ccc(C)cc2)c(O)c1

OUT:
9.79
-28.9
-26.5
-40.1
5.13
-6.54
3.42
-49

====

- assayRemarks: GFP drop in mixed WT/humanized-ribosome E. coli culture – GFP/RFP fluorescence, OD600, single point, bacterial rRNA inhibitor project, primary screen (AID 720706)
- experimentalConditions: E. coli WT GFP vs humanized-ribosome RFP mutants, 24 h; measured here: OD600 growth, DMSO median 0, no signal -100
Screen size: about 350,000 compounds; about 5,500 (1.6%) were called active. The list comes from a sample in which actives are over-represented; it also holds close analogues and randomly drawn compounds.
metric: OD600 change
Please give the number followed by its unit.

Guide cases for OD600 change, answers given:
NNc1nc2c(Cl)cccc2s1 :: -15.6%
Cc1ccc(-c2cnc3c(c2)C(=O)N([C@H](C)CO)C[C@H](C)[C@@H](CN(C)S(C)(=O)=O)O3)cc1 :: 1.04%

Required: OD600 change, one value per compound below.
1. C[C@@H]1CN([C@@H](C)CO)S(=O)(=O)c2ccc(C#C[C@@H](C)O)cc2O[C@@H]1CN(C)C(=O)Cc1ccccn1
2. CCCCNC(=O)C1(O)c2ccccc2NC(=O)N1c1ccc(Cl)cc1 (centres undefined)

OUT:
0.98%
-20.4%

====

- assayRemarks: GFP drop in mixed WT/humanized-ribosome E. coli culture – GFP/RFP fluorescence, OD600, single point, bacterial rRNA inhibitor project, primary screen (AID 720706)
- experimentalConditions: E. coli WT GFP vs humanized-ribosome RFP mutants, 24 h; measured here: RFP humanized mutant strains, DMSO median 0, no signal -100, concentration not given here
About 5,500 (1.6%) of roughly 350,000 compounds were called active. Only a selection was taken, and actives are over-represented in it overall.
metric: RFP signal change (%)
Answers are plain numbers, in %.

Required: RFP signal change, one value per compound below.
1. O=C(O)c1ccccc1-c1ccccc1C(=O)NCCc1ccccc1
2. CCC(=O)N1CC(=O)N2[C@@H](CO)[C@H](c3ccc(C#CC4CCCC4)cc3)[C@@H]2C1
3. CN(C)C(=O)c1ccc(-c2ccc(C3[C@@H]4CN(S(=O)(=O)c5cccc(Cl)c5)C[C@H]3N4)cc2)cc1 (stereo partly specified)
4. Cn1c(=O)n(C)c2cc(NS(=O)(=O)c3ccc(F)cc3)ccc21
5. C[C@@H]1CC=CC[C@@H](c2ccccc2)NC(=O)[C@@H](Cc2ccccc2)N(C)C(=O)c2ccccc2O1 (mixture of isomers)
6. COc1ccc(CN2CCCCN3[C@H](C2)[C@H](c2ccc(-c4ccc(OC)cc4)cc2)[C@@H]3CO)cc1

OUT:
1: 2.49; 2: -1.59; 3: 1.15; 4: -4.92; 5: -0.954; 6: 3.41

====

- assayRemarks: GFP drop in mixed WT/humanized-ribosome E. coli culture – GFP/RFP fluorescence, OD600, single point, bacterial rRNA inhibitor project, primary screen (AID 720706)
- experimentalConditions: E. coli WT GFP vs humanized-ribosome RFP mutants, 24 h; stronger effect = lower value, DMSO median 0, no signal -100
Out of some 350,000 compounds screened, about 5,500 (1.6%) were called active. The entries come from a sample that favours actives as a whole.
Please respond with reported GFP signal change (wild-type ribosome) for every item in the list.
Answers are plain numbers, in %.

Guide cases for GFP signal change (wild-type ribosome), answers given:
COc1ccc2c3c([nH]c2c1)[C@@H](CO)N(C(=O)CC1CC1)CC31CCN(Cc2cccnc2)CC1 :: 1.59
N#Cc1cccc(C(=O)NCC2CCN(C(=O)C(=O)c3cc4ccccc4o3)CC2)c1 :: -2.59
Cc1ccccc1-n1nnnc1SCCCC(=O)c1ccc(F)cc1 :: -23.1
O=C(Cc1ccc(Br)cc1)NCCc1ccccc1 :: -13.7
CC(=O)Nc1ccc(NC(=O)CSc2nnnn2-c2ccccc2F)cc1 :: 4.89
O=C(NCCCN1CCOCC1)c1ccc([N+](=O)[O-])cc1[N+](=O)[O-] :: 7.34
CC1CCN(C(=O)CCNC(=O)c2ccccc2)CC1 :: 9.31
CC1CCc2[nH]c3ccc(C(=O)N(C)CC(=O)Nc4cccc(F)c4)cc3c2C1 (centres undefined) :: -34
COc1cccc(CCNC(=O)c2cccc(NC(=O)C3=C(C)OCCS3)c2)c1 :: -25.3
O=C(NCCCN1CCN(c2ccc(F)cc2)CC1)Nc1ccc([N+](=O)[O-])cc1 :: -23.1

Required: GFP signal change (wild-type ribosome), one value per compound below.
1. CCc1ccc2nc(N(CCCN(C)C)C(=O)c3ccc4c(c3)OCCO4)sc2c1
2. CCNC(=O)c1cccc(NC(=O)C2CC(=O)N(CCc3ccccc3)C2)c1 (centres undefined)
3. O=C(NCCc1ccccc1)c1cccc(NC(=O)c2ccccc2)c1
4. CCS(=O)(=O)N1CC(=O)N2[C@H](C1)[C@@H](c1ccc(C#Cc3ccc(F)cc3)cc1)[C@@H]2CO

OUT:
-22.5
8.73
-23.9
-26.6

====

- assayRemarks: GFP drop in mixed WT/humanized-ribosome E. coli culture – GFP/RFP fluorescence, OD600, single point, bacterial rRNA inhibitor project, primary screen (AID 720706)
- experimentalConditions: E. coli WT GFP vs humanized-ribosome RFP mutants, 24 h, DMSO median 0, no signal -100
Hit rate of the full screen: of about 350,000 compounds, about 5,500 (1.6%) were called active.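 The calls were made as follows: active = significant combined selectivity score with lowered wild-type GFP, culture density cut under 30%, mutant RFP and density less affected; inactive = any of these conditions unmet.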 This excerpt belongs to a sample that is enriched for actives.
Hi there, use one of these labels in your reply, thanks! active, inactive

CN(CC(=O)NCc1cccnc1)S(=O)(=O)c1cc(Cl)ccc1Cl :: inactive
CC(C)C#Cc1ccc2c(c1)O[C@@H](CN(C)C(=O)CN(C)C)[C@@H](C)CN([C@H](C)CO)S2(=O)=O :: inactive

IN: Look up the recorded call for S=C(NCc1cccnc1)Nc1ccc(Cl)cc1Cl in this test.
OUT: active

IN: // query: Cc1cc(N2CCN(C)CC2)nc2ccc(NC(=S)N3CCOCC3)cc12
OUT: inactive

IN: // query: C[C@H](CO)N1C[C@H](C)[C@@H](CN(C)C(=O)C2CC2)Oc2cc(C#CC(C)(C)O)ccc2S1(=O)=O
OUT: inactive

IN: // query: CC(C)NC(=O)Nc1ccc2c(c1)CC(=O)N(C)C[C@@H](C)[C@@H](CN(C)C(=O)OC(C)(C)C)O2
OUT: inactive

IN: // query: COc1ccc(NC(=O)N(C)C[C@@H]2OCCCC[C@@H](C)Oc3ccc(NS(=O)(=O)c4cn(C)cn4)cc3C(=O)N([C@@H](C)CO)C[C@H]2C)cc1
OUT: inactive

IN: // query: COc1ccc2c3c(n(C)c2c1)[C@@H](CO)N(Cc1ccccc1OC)CC31CN(CC2CCOCC2)C1
OUT: inactive

IN: // query: C[C@@H]1CN([C@@H](C)CO)C(=O)Cc2cc(NC(=O)Nc3ccc(C(F)(F)F)cc3)ccc2O[C@H]1CN(C)Cc1ccc(C(=O)O)cc1
OUT: inactive

IN: // query: C[C@H]1CN([C@@H](C)CO)C(=O)c2cc(-c3ccncc3)cnc2O[C@@H]1CN(C)C(=O)C1CCCCC1
OUT: inactive

IN: // query: Cc1c(/C=N\NC(=O)c2cc3ccccc3o2)c2ccccc2n1C
OUT: active
